Tested on: U251 CNS
protocol details: NCI tumour cell line growth inhibition, 48 h
measurement name: TGI

Sample answers from the record:
> print(dat)
                                    compound  target.of.assay  measurement.name  endpoint.result
 1                   CCCCCCCCCCCC[n+]1ccccc1         U251 CNS               TGI          2.44 µM
 2  COc1cc(/C=C/c2ccc(OC(C)=O)cc2)cc(OC)c1OC         U251 CNS               TGI         > 100 µM
 3  O=C1Nc2cc([N+](=O)[O-])ccc2C(=O)N2CCC[C@@H]12         U251 CNS               TGI         > 100 µM
 4  Cc1ccc(C2(O)CC(c3ccc([N+](=O)[O-])o3)=NN2C(=O)COc2ccccc2Cl)cc1 (configuration not stated)         U251 CNS               TGI          28.2 µM
 5  COc1ccc2[nH]c(=O)c(/C=C/C(=O)/C=C/c3ccc(O)c(OC)c3)cc2c1         U251 CNS               TGI          2.68 µM
 6  COC(=O)c1c2c(c(-c3ccccc3)c3c1-c1nc(Cl)ccc1CC3)CCc1ccc(Cl)nc1-2         U251 CNS               TGI         > 100 µM
 7  Nc1nnc(N)n1NC(=O)C(=O)Nc1ccc([N+](=O)[O-])cc1         U251 CNS               TGI         > 100 µM
 8  CCN(C(=O)CCl)C(C)(C)C(SSSC(c1ccc(Cl)cc1)C(C)(C)N(CC)C(=O)CCl)c1ccc(Cl)cc1 (configuration not stated)         U251 CNS               TGI          17.7 µM
 9  O=C1Oc2ccccc2C(=O)/C1=C/N1C(=O)N/C(=C\c2cccc(O)c2)C1=O         U251 CNS               TGI         > 100 µM
10  CCCCCCCCCCCCCCCCOCC(COP(=O)([O-])OCC[n+]1ccc(N(C)C)cc1)OCC (configuration not stated)         U251 CNS               TGI          25.6 µM

QUERY: Using the record for `Cc1ncc(C(=O)Nc2ccc(CN3CCN(C)CC3)c(C(F)(F)F)c2)cc1C#Cc1cnc(N)c2ncccc12` , report its TGI.
RESULT: 2.65 µM

QUERY: Query (compound): `O=C(NNc1ccccc1)OCc1ccccc1` ; field requested: TGI
RESULT: > 100 µM

QUERY: Please look up its TGI: `N#Cc1c(C#N)c(-c2ccco2)n(-c2ccccc2)c1N`
RESULT: > 100 µM

QUERY: Given O=C(O)Cc1cccc2c1OC(c1ccccc1)C(C(=O)c1ccccc1)C2=O (configuration not stated) , state its recorded TGI.
RESULT: > 100 µM

QUERY: Need TGI of `Cc1ccc(N=Nc2c(N)nn(-c3ccccc3)c2N)cc1` , thanks.
RESULT: > 100 µM

QUERY: Any idea what TGI was measured for `COc1ccc2c(c1)sc1nc(-c3ccccc3)c(-c3ccc(O)c(OC)c3)n12` ?
RESULT: > 100 µM

QUERY: Item under review: Cc1ccccc1NC(=O)C1C(=O)N(c2ccccc2C)C(=O)/C1=N\N (configuration not stated) . Reported TGI?
RESULT: > 100 µM

QUERY: Param item = `COc1c(C)c(C/C=C(\C)CCCCO)c(OC)c(OC)c1OC` ; retrieve measured TGI.
RESULT: > 100 µM

QUERY: Given the entry `CCN(CC)CCn1c2cc3c(cc2c(=O)c2cccnc21)OCO3` , report its measured TGI.
RESULT: > 10 µM

QUERY: What does the data say about its TGI? Entry: `O=C1c2ccccc2C(=O)c2c1ccc(C(=O)O)c2-c1ccc2ccccc2c1`
RESULT: 55.4 µM

QUERY: Which value of TGI has been reported for Nc1nc(Cl)cc(NCC2(CO)CCC(O)C2)n1 (configuration not stated) in the records?
RESULT: > 100 µM

QUERY: GET /values?readout=TGI&item= `CCOC(=O)NC`
RESULT: > 100 µM

* * *

Test system: HT29 colon
protocol details: NCI tumour cell line growth inhibition, 48 h
Where a SMILES comes first, the peptide text is derived from it. [ ]: non-standard residue; d: D form. NMeY = CN[C@@H](Cc1ccc(O)cc1)C(=O)O; dNMeF = CN[C@H](Cc1ccccc1)C(=O)O; Sar = CNCC(=O)O
measurement name: log10 of TGI (log10 of the value in µM)
// units: µM (pre-log); metric: TGI; scale: log10

# annotated cases, reported log10 of TGI shown
molecule	log10 of TGI
CCC[CH2][Ge]([CH2]CCC)([CH2]CCC)[O]C(=O)C(O)c1ccccc1 (stereo not given)	1.32
CC[C@H](C)[C@@H]1NC(=O)[C@H](Cc2ccc(O)cc2)N(C)C(=O)[C@H](Cc2ccccc2)NC(=O)CN(C)C(=O)[C@@H]2CCCN2C(=O)[C@@H](Cc2ccccc2)N(C)C(=O)[C@H](CC(C)C)NC1=O (cyclo(F[NMeY]IL[dNMeF]P[Sar]))	0.86

// switching to the query molecule
QUERY: Field request: log10 of TGI | item: `N#Cc1cccc(/C=C(/C(=O)c2ccccc2)c2ccccc2)c1`
RESULT: 1.18

* * *

Tested on: MOLT-4 leukemia
protocol details: NCI tumour cell line growth inhibition, 48 h
measurement name: TGI

Some entries whose results are on file:
compound	TGI
O=C(O)Cc1cccc2c1OC(c1ccccc1)C(C(=O)c1ccccc1)C2=O (centres undefined)	> 100 µM
CCOC(=O)[C@H]1Nc2ccc(Cl)cc2[C@H]2OCC[C@@H]12	> 100 µM

QUERY: # TGI lookup, item `COc1ccc2c(c1)CC[C@@H]1[C@@H]2CC[C@]2(C)C(=O)/C(=C/c3ccncc3)C[C@@H]12`
RESULT: > 100 µM

QUERY: Entry `Cc1cc(=O)oc2c1cc(OCC(=O)OCCN1CCCCC1)c1occ(C)c12` has what TGI?
RESULT: > 100 µM

QUERY: Dear colleague, I am looking for the recorded TGI of the following compound: `CCN(CC)CCCOc1cc(O)c2c(=O)cc(-c3ccccc3)oc2c1`
RESULT: 8.71 µM

* * *

Listing of entries alongside the reported GI50.
System: CAKI-1 renal
protocol details: NCI tumour cell line growth inhibition, 48 h

QUERY: Recall the recorded GI50 for `Cc1ccc(N=Nc2c(N)nn(-c3ccccc3)c2N)cc1` with CAKI-1 renal and state it.
RESULT: 1.28 µM

QUERY: Lab request: please report GI50 under test system CAKI-1 renal for `C/C1=C\C/C=C(\C)[C@H]2CC(CC/C(C)=C/CC1)[C@@](C)(CO)O2`
RESULT: 44.9 µM

QUERY: GI50 of `CC[C@H](C)[C@H](NC(=O)Nc1ccccc1)C(=O)N(C)[C@H](C[C@@H](OC(C)=O)c1nc(C(=O)N[C@@H](Cc2ccccc2)C[C@H](C)C(=O)OC)cs1)C(C)C` on CAKI-1 renal?
RESULT: 9.01 µM

QUERY: Param readout= GI50; system= CAKI-1 renal; entry= `CCOC(=O)Cn1c(C)c(/C=N/NC(=O)c2cc3c(ccc4ccccc43)o2)c2ccccc21` ; returns value.
RESULT: 0.575 µM

QUERY: Give CAKI-1 renal GI50 for `COc1cccc(-n2ncc3c(N/N=C/c4ccc(S(C)(=O)=O)cc4)ncnc32)c1`
RESULT: 4.81 µM

QUERY: GI50 of `O=C1c2ccccc2-c2n[nH]c3cccc1c23` on CAKI-1 renal?
RESULT: 2.98 µM

QUERY: Provide value of GI50 for this record tested with CAKI-1 renal: O=C(OCC1OC(OC(=O)c2cc(O)c(O)c(OC(=O)c3cc(O)c(O)c(O)c3)c2)C(OC(=O)c2cc(O)c(O)c(OC(=O)c3cc(O)c(O)c(O)c3)c2)C(OC(=O)c2cc(O)c(O)c(OC(=O)c3cc(O)c(O)c(O)c3)c2)C1OC(=O)c1cc(O)c(O)c(OC(=O)c2cc(O)c(O)c(O)c2)c1)c1cc(O)c(O)c(OC(=O)c2cc(O)c(O)c(O)c2)c1 (stereo not drawn)
RESULT: 9.63 µM

QUERY: For CAKI-1 renal, provide GI50 of `CCN(CC)CCCOc1cc(O)c2c(=O)cc(-c3ccccc3)oc2c1` please.
RESULT: 13.9 µM

* * *

System: HCT-116 colon
protocol details: NCI tumour cell line growth inhibition, 48 h
Below: a set of entries, each annotated with reported TGI.
Number in µM, nothing else.

QUERY: So what's the measured TGI for this one? `CN(C)C(=O)c1cc2cnc(Nc3ccc(-c4csc5c(=O)cc(N6CCNCC6)oc45)cc3)nc2n1C1CCCC1`
RESULT: 1.4

QUERY: Which value of TGI has been reported for `Cc1cc2c3ccccc3ccc2[n+]2ccccc12` in the records?
RESULT: 44.4

QUERY: May I ask what TGI has been recorded for `CN(C)CC/C(=N\Nc1ccc(Cl)c(Cl)c1)c1ccccc1` ?
RESULT: 3.19

QUERY: Param item = `CCOC(=O)c1ccc(Nc2sc(C(=O)c3cccc([N+](=O)[O-])c3)c(N)c2C#N)cc1` ; retrieve measured TGI.
RESULT: 4.17

QUERY: Would you kindly share the measured TGI for Cc1ccc(C(CC(=O)C(C)(C)CN2CCCCC2)SCCS(=O)(=O)O)cc1 (stereo not given) ?
RESULT: 59.2
